Recorded self-cleavage kobs at 2500 uM GlcN6P by entry
B1: glmS ribozyme (parent)
chain: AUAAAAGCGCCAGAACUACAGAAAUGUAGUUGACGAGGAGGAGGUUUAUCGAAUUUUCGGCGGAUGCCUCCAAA

Variants of: B1
protocol_details: self-cleavage kobs at 2500 uM GlcN6P; higher = faster cleavage; RNA array
condition_details: with glucosamine-6-phosphate
Variants at the floor of the assay were thinned out.
Report as a plain number; the unit s⁻¹ is understood.

mutation_name="A53G U55C" unit_string=s⁻¹ measured_value=0.0106
mutation_name="U46G G66A" unit_string=s⁻¹ measured_value=0.00502
mutation_name="A52G C61A C67U" unit_string=s⁻¹ measured_value=0.000197
mutation_name="C50U C61A A64U C67G" unit_string=s⁻¹ measured_value=9.68e-05
mutation_name="C50A A53U C67U C68G" unit_string=s⁻¹ measured_value=4.54e-05

Query: Please report the recorded self-cleavage kobs at 2500 uM GlcN6P for A39C A64C .
Reply: 4.35e-05

Query: Also check G66C U69G
Reply: 6.24e-05

Query: Moving on to U30G C68G
Reply: 3.26e-05

Query: Also A53G G66A C67A ?
Reply: 0.0011

Cited source: the supplement of paper PMC7125110
